# cytotoxicity at 70.5 h annotations
Assay: Human HepG2 cell viability assay in 384 well format
Assay type: toxicity, cell-based
Design: dose 125 nL, time 70.5 hour; concentration not given beside the values
Conditions: HepG2 cells, read-out: Inhibition
// units = %; emit number, no label

O=C1CC(c2ccncc2)C2(CCN(CC3CC3)CC2)N1 (stereo not drawn)
14.8
COCc1nn(C(C)C)c2c1CCN(Cc1ccc(C)s1)C2
-8.69
COc1ccccc1CN1C[C@@H](F)[C@@H](OCc2nc3cnccc3[nH]2)C1
-4.23
Cc1nn(CC(C)C)c(N(C)C)c1CNCCC(=O)NC(C)C
23
CC(C)N(C(=O)Cn1nc2n(c1=O)CCCCC2)C1CCC1
-9.98
COc1ccc(CN2CCOC3(CCCN(c4nnc(C)o4)C3)C2)cc1 (stereo not drawn)
-2.27
O=C1c2cnc(N3CCCC3)nc2CN1CCc1ccc(Cl)cc1
-6.15
Cn1cc(CN2CC[C@@H]3[C@@H](CCC(=O)N3CC3CCNCC3)C2)cn1
1.94
CCOc1ccc(Cl)c(C(=O)N2CCCN(CC(N)=O)CC2)n1
-12
CN(C)CC1CN(CC(=O)N2CCc3ccccc32)CCO1 (stereo not drawn)
11.8

Q) Which value of cytotoxicity at 70.5 h has been reported for CC(C)c1nnc(CN2C(=O)OC[C@@H]2C(C)C)o1 in the records?
A) -5.17

Q) # lookup: cytotoxicity at 70.5 h of O=C(NCC1CCOC1)c1csc(-c2ccccc2)n1 (stereo not drawn)
A) -15.4

----------
Experiment: Human HepG2 cell viability assay in 384 well format
Format: toxicity, cell-based
Set-up: dose 125 nL, time 70.5 hour; concentration not given beside the values
Details: HepG2 cells, read-out: Inhibition
measuredAttribute: cytotoxicity at 70.5 h (%)
Give your result in % as a bare value.

Cc1ccc(C(=O)N2C[C@@H]3OCCN(C)[C@@H]3C2)cn1
-2.77
O=C(c1cn(CCN2CCCCC2)nn1)N1CCSCC1
-1.47
CC1CN(CC(=O)NC(C2CC2)C2CC2)CCN1Cc1nccn1C (stereo not drawn)
-3.28
CCCS(=O)(=O)N1CCC2(CC1)CN(c1ccccn1)CCO2
23.8
COc1c(CNC2CCc3cc(F)ccc32)c(C(C)C)nn1C (stereo not drawn)
16.8

We now examine a further compound.
Q) Would you kindly share the measured cytotoxicity at 70.5 h for Cc1nc[nH]c1CN1CCCC12CCN(c1ccccn1)CC2 ?
A) -3.64

----------
Assay: Human HepG2 cell viability assay in 384 well format
Type: toxicity, cell-based
Set-up: dose 125 nL, time 70.5 hour; concentration not given beside the values
Conditions: HepG2 cells, read-out: Inhibition
Parameter cytotoxicity at 70.5 h: see the listing below.
Dear colleague, please return just the value in %, with no unit written.

Worked cases, answers included:
O=C(c1ccc(S(=O)(=O)NCc2ccon2)cc1)N1CCOCC1
19.9
CN(C)C(=O)c1nc2c(s1)CCCN2Cc1ccccc1
-7.89

Q) cytotoxicity at 70.5 h for COc1ccccc1OCc1cc(C(=O)N2C[C@@H](C)O[C@@H](C)C2)n[nH]1 ?
A) -11.2

Q) Recorded cytotoxicity at 70.5 h of CCc1ccccc1-n1nnc(C(=O)O)c1-c1ccccn1 , please.
A) -8.12

Q) Recorded cytotoxicity at 70.5 h of Cc1noc(C)c1CCC(=O)NCC1(O)CCCN(c2ccccn2)C1 (stereo not given) , please.
A) -5.72

Q) What value of cytotoxicity at 70.5 h has been reported for the following compound? COc1ccccc1S(=O)(=O)Nc1ccc2c(C(=O)O)c[nH]c2c1
A) -6.86

Q) Can you look up the measured cytotoxicity at 70.5 h of c1ccc2c(c1)COC1(CCCCC1)N2 for me?
A) -4.51
